# ASSAY_REMARKS: Cytotoxicity against mouse J774 cells assessed as cell viability at 100 ug/mL after 24 hrs by MTT assay
# Assay type: cell-based
# ASSAY_CONDITIONS: read-out: Activity
MEASURED_ATTRIBUTE: viability at 24 h, 100 ug/mL (%)
Response body: numeric value in %, unit text excluded.

Give its viability at 24 h, 100 ug/mL value. Item: Cc1ccc(S(=O)(=O)N[C@@H](Cc2ccccc2)[C@H](O)CN2CCN(Cc3ccccc3)CC2)cc1
5

Given the entry O=[N+]([O-])c1ccc(S(=O)(=O)N[C@@H](Cc2ccccc2)[C@H](O)CN2CCN(Cc3ccc4c(c3)OCO4)CC2)cc1 , report its measured viability at 24 h, 100 ug/mL.
40

Recorded viability at 24 h, 100 ug/mL of O=S(=O)(N[C@@H](Cc1ccccc1)[C@H](O)CN1CCN(Cc2ccc3c(c2)OCO3)CC1)c1ccc(Br)cc1 , please.
5

Consider the compound shown here: Cc1c(O)cccc1C(=O)N[C@@H](Cc1ccccc1)[C@H](O)CN1CCN(Cc2ccc3c(c2)OCO3)CC1 What is its recorded viability at 24 h, 100 ug/mL?
8

Requested read-out: viability at 24 h, 100 ug/mL. Entry: Nc1ccc(S(=O)(=O)N[C@@H](Cc2ccccc2)[C@H](O)CN2CCN(Cc3ccc4c(c3)OCO4)CC2)cc1
55

Which viability at 24 h, 100 ug/mL reading was recorded for the compound O=S(=O)(N[C@@H](Cc1ccccc1)[C@H](O)CN1CCN(Cc2ccc3c(c2)OCO3)CC1)c1ccc(F)cc1 ?
4

Item O=C(N[C@@H](Cc1ccccc1)[C@H](O)CN1CCN(Cc2ccc3c(c2)OCO3)CC1)c1ccccc1 has what recorded viability at 24 h, 100 ug/mL?
38

What does the data say about its viability at 24 h, 100 ug/mL? Entry: COc1ccc(CN2CCN(C[C@@H](O)[C@H](Cc3ccccc3)NS(=O)(=O)c3ccc(C)cc3)CC2)cc1
6

Numbers sourced from ChEMBL document CHEMBL1153608.
